Hello, the source for this data is patent US20100298213A1, in case you need it.

Assignment: determine reported relative affinity for the given binders.
Biological target: T1, pig insulin receptor isoform with exon 11 (pig, UniProt F1SCL0 28-758; F1SCL0 763-1382)
T1 construct: also called PIR+11; PIR + 11
T1 sequence (alpha, as listed by the source limits assumed, stated change not applied, form in doubt, chain 1 of 2): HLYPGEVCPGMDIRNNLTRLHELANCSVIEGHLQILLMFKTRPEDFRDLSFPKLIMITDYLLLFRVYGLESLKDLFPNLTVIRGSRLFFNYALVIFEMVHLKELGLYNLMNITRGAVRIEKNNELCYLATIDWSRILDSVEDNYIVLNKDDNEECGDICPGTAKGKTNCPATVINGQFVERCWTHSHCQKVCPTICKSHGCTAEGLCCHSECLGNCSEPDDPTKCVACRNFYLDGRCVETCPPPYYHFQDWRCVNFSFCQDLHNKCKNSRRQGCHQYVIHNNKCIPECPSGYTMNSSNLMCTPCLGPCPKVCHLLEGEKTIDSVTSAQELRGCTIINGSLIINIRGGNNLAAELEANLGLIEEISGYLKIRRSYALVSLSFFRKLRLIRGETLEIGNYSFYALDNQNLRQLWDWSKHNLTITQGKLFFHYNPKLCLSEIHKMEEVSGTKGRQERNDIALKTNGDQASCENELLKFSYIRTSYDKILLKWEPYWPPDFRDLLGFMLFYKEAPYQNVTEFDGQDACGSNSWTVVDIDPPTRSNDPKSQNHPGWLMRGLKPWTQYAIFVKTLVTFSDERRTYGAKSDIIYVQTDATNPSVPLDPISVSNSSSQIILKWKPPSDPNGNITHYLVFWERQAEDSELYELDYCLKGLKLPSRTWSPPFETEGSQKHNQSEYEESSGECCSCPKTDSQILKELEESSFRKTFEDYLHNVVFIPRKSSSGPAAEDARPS
T1 sequence (beta, as listed by the source limits assumed, stated change not applied, form in doubt, chain 2 of 2): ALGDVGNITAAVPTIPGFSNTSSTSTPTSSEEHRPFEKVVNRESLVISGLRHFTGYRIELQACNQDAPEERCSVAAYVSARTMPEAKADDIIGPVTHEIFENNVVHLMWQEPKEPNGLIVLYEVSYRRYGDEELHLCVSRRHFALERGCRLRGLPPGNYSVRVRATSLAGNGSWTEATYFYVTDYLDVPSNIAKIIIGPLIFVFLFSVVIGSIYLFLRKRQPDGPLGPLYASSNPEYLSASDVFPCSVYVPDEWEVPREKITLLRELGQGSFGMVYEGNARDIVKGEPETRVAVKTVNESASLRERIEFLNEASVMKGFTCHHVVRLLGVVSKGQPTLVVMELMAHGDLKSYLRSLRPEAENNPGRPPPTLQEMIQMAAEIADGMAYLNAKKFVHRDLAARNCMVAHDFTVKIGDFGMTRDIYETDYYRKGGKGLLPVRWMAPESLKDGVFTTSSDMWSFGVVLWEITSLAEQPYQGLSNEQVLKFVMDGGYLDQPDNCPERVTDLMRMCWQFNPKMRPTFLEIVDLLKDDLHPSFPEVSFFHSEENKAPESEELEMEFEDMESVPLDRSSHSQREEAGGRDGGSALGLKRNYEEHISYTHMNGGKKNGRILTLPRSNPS
Assay: receptor binding, standard methods (FIG. 2)
Ends that are not written are not given here.

Which value of relative affinity has been reported for Ac-SLEEEWAQIQCEVWGRGCPSESFYGWFERQLG (cysteine pairing not given here) [S733] in the records? 228

Which value of relative affinity has been reported for SLEEEWAQIECEVYGRGCPSVRGFQGGTVWPGYEWLRNAAKK [S626] in the records? 3

Which value of relative affinity has been reported for SLEEEWAQIEAEVWGRGAPSESFYDWFERQLG [S574] in the records? 0.4

Which value of relative affinity has been reported for SLEEEWAQVECEVYERGCPSESFYDWFERQL [S696] in the records? 0.8

Which value of relative affinity has been reported for {MeO‑PEG5000}-SLEEEWAQIECEVYGRGCPSESFYDWFERQL (cysteine pairing not given here) [S660] in the records? 12

Which value of relative affinity has been reported for Ac-SLEEEWAQIQCEVWGRGCPSESFYDWFERQL (cysteine pairing not given here) [S636] in the records? 68

Which value of relative affinity has been reported for Ac-SLEEEWAQIECEVWGRGCPSEGFYNAIELLS (cysteine pairing not given here) [S726] in the records? 5.9

Which value of relative affinity has been reported for Ac-SLEEEWAQIQCEVWGRGCPSESFYGWFERQL (cysteine pairing not given here) [S667] in the records? 84
